Entries and their IC50 values follow.
- assayed_system: PAR2 (HT-29 cells, SLIGKV activation) (Homo sapiens, UniProt P55085)
- Construct: host or cells: HT-29 cells
- Sequence (P55085 26-397): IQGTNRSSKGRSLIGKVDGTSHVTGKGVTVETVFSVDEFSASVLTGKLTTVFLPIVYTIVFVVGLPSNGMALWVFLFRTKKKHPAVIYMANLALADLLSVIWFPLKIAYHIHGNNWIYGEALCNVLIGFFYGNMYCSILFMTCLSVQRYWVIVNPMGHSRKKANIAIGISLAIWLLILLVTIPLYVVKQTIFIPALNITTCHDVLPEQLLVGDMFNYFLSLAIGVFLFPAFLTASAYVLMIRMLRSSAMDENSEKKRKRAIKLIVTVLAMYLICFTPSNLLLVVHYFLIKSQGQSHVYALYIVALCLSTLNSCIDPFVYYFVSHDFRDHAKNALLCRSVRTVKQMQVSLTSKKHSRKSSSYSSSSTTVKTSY
- assay: Ca FLIPR TETRA assay, ANTAGONIST mode, stimulation with 8 μM SLIGKV
- Format: cell-based
- experimental_parameters: HT-29 cells, antagonist mode, stimulation with 8 μM SLIGKV

Worked examples follow.
CC(C)c1cc(-c2ccc(F)c(F)c2)nn2cc(C(=O)N3CCN(C(=O)C(C)(C)O)CC3(C)C)nc12 23.3 nM
Cc1nc(C(=O)N2CCN(C(=O)c3cn4nc(-c5ccc(C)c(F)c5)cc(C(C)(C)C)c4n3)C(C)(C)C2)n[nH]1 0.6 nM
CC(C)(C)c1cc(-c2ccc(Cl)cc2)nn2cc(C(=O)N3CCNC(=O)C3(C)C)nc12 2.7 nM
CC(C)(C)c1cc(-c2ccc(F)cc2)nn2cc(C(=O)N3CCN(C(=O)c4nc[nH]n4)CC3(C)C)nc12 0.7 nM
CC(C)(C)c1cc(-c2ccc(F)c(F)c2)nn2cc(C(=O)N3CCNC(=O)C3(C)C)nc12 1.2 nM

Indicate its recorded IC50; the molecule in question is CC(C)c1cc(-c2ccc(C(F)(F)F)c(F)c2)nn2cc(C(=O)N3CCN(C(=O)C(C)(C)O)CC3(C)C)nc12
2.6 nM

Indicate its recorded IC50; the molecule in question is CC(C)(C)c1cc(C2CCC(F)(F)CC2)nn2cc(C(=O)N3CCN(c4cc[nH]n4)C(=O)C3(C)C)nc12
2.4 nM

Indicate its recorded IC50; the molecule in question is COC(=O)[C@H]1CC[C@H](C(=O)N2CCN(C(=O)c3cn4nc(-c5ccc(Cl)cc5)cc(C(C)C)c4n3)C(C)(C)C2)CC1
1.8 nM

Indicate its recorded IC50; the molecule in question is Cc1ccc(-c2cc(C(C)C)c3nc(C(=O)N4CCNC(=O)C4(C)C)cn3n2)cc1
5 nM
